Could you please report measured selectivity ratio for the items listed next?
Assay: in vivo
Conditions: mouse, po

// solved cases for selectivity ratio follow
{"chemSmiles": "CCc1ccc(C)n1S(=O)(=O)c1cc(C(=O)O)cc(NCc2ccsc2)c1Oc1ccccc1", "valueMeasured": "> 21500"}
{"chemSmiles": "Cc1ccc(C)n1S(=O)(=O)c1cc(C(=O)O)cc(NCc2ccsc2)c1Nc1ccccc1", "valueMeasured": "> 10000"}

# next compound below
Problem: // query selectivity ratio value for entry CCc1ccc(CC)n1S(=O)(=O)c1cc(C(=O)O)cc(NCc2ccsc2)c1Oc1ccccc1
Result: > 21500

---

Assay: in vivo
Details: mouse, po
assayMetric: LD50 at 72 h

{"molecule": "CCc1ccc(CC)n1S(=O)(=O)c1cc(C(=O)O)cc(NCc2ccsc2)c1Oc1ccccc1 [Example 114]", "LD50 at 72 h": "> 2150 mg/kg"}
{"molecule": "Cc1ccc(C)n1S(=O)(=O)c1cc(C(=O)O)cc(NCc2ccsc2)c1Nc1ccccc1 [Example 120]", "LD50 at 72 h": "> 2150 mg/kg"}

# next molecule below
Problem: // query LD50 at 72 h value for entry CCc1ccc(C)n1S(=O)(=O)c1cc(C(=O)O)cc(NCc2ccsc2)c1Oc1ccccc1 [Example 116]
Result: > 2150 mg/kg
